Origin of measurements: patent US12338220B2

# Tested system: CMV-polymerase (Human cytomegalovirus (strain AD169) (HHV-5) (Human herpesvirus 5), UniProt P08546)
# Procedure summary: biochemical
# Run parameters: read-out: CMV-polymerase Biochemical IC50
# maps each entry to its IC50
Your answer is read as nM, so omit the unit and give the number.

Before answering, review these 3 worked examples.
INSERT INTO results (smiles_data, readout_type, measured_number) VALUES
  ('Cn1nc(C(=O)NCc2ccc(C#N)cc2)c2c1C(=O)N(CC1(S(=O)(=O)NC3COC3)CC1)CC2', 'IC50', 20),
  ('Cn1nc(C(=O)NCc2ccc(C#N)cc2)c2c1C(=O)N(CC1(S(=O)(=O)C3CCOCC3)CC1)CC2', 'IC50', 14),
  ('Cc1cc(CNC(=O)c2nn(C)c3c2CCN(CC2(S(=O)(=O)C4CC4)CC2)C3=O)ccc1C#N', 'IC50', 17);

Next molecule, IC50 to be filled in.
Looking up Cn1nc(C(=O)NCc2ccc(C#N)cc2)c2ccn(CC3(S(=O)(=O)C4CC4)CC3)c(=O)c21 , I found its IC50 recorded as 10

----------
# Tested system: HSV-polymerase (Human herpesvirus 1 (strain 17) (HHV-1) (Human herpes simplex virus 1))
# Procedure summary: biochemical
Readout type: pIC50
// field semantics: pIC50 = negative decimal log of concentration (mol/L)

INSERT INTO results (compound, measured_number) VALUES
  ('Cn1nc(C(=O)NCc2ccc(C#N)cc2)c2c1C(=O)N(CC1(S(=O)(=O)C(C)(C)COC(F)CN)CC1)CC2 (single isomer, unassigned) [Example 82]', 7.09);

The recorded pIC50 with HSV-polymerase (Human herpesvirus 1 (strain 17) (HHV-1) (Human herpes simplex virus 1)) for Cn1nc(C(=O)NCc2ccc(C#N)cc2)c2ccn(CC3(S(=O)(=O)C4CC4)CC3)c(=O)c21 was 6.57

pIC50 value, target or system HSV-polymerase (Human herpesvirus 1 (strain 17) (HHV-1) (Human herpes simplex virus 1)), for CC(O)CC(C)(C)S(=O)(=O)C1(CN2CCc3c(C(=O)NCc4ccc(C#N)cc4)nn(C)c3C2=O)CC1 (single isomer, unassigned) [Example 115] : 7.15

Log: HSV-polymerase (Human herpesvirus 1 (strain 17) (HHV-1) (Human herpes simplex virus 1)), compound Cn1nc(C(=O)NCc2ccc(Cl)nc2)c2c1C(=O)N(CC1(S(=O)(=O)C3CC3)CC1)CC2 , pIC50 = 6.06

# lookup: Cn1nc(C(=O)NCc2ccc(Cl)cc2)c2c1C(=O)N(CC1(S(=O)(=O)C(C)(C)C(N)=O)CC1)CC2 on HSV-polymerase (Human herpesvirus 1 (strain 17) (HHV-1) (Human herpes simplex virus 1)), pIC50 = 7.12

Measured pIC50 for this entry CC1=NOC(C(C)(C)S(=O)(=O)C2(CN3CCc4c(C(=O)NCc5ccc(C#N)cc5)nn(C)c4C3=O)CC2)C1 (single isomer, unassigned) [Example 111] on HSV-polymerase (Human herpesvirus 1 (strain 17) (HHV-1) (Human herpes simplex virus 1)): 6.83

----------
Listed here: items and their measured pIC50.
# Tested system: CMV-polymerase (Human cytomegalovirus (strain AD169) (HHV-5) (Human herpesvirus 5))
# Procedure summary: biochemical
# Run parameters: read-out: CMV-polymerase Biochemical IC50
The read-out pIC50 is expressed as -log10 of concentration in moles per litre.

Data point: Cn1nc(C(=O)NCc2ccc(C#N)cc2)c2c1C(=O)N(CC1(S(=O)(=O)N3CCC(O)CC3)CC1)CC2 ; pIC50 = 8.52

// pIC50 value for COCC(C)(COC)S(=O)(=O)C1(CN2CCc3c(C(=O)NCc4ccc(C#N)cc4)nn(C)c3C2=O)CC1 : 8.70

Record CC(C)(CO)S(=O)(=O)C1(CN2CCc3c(C(=O)NCc4ccc(Cl)cc4)nn(CCO)c3C2=O)CC1 , field pIC50: 9.00

----------
Parameter: log10 IC50. Scope: all listed entries.
# Tested system: CMV-polymerase (Human cytomegalovirus (strain AD169) (HHV-5) (Human herpesvirus 5), UniProt P08546)
# Procedure summary: biochemical
# Run parameters: read-out: CMV-polymerase Biochemical IC50
On a log10 scale: recorded IC50, unit nM.

INSERT INTO results (compound, readout_type, measured_number) VALUES
  ('Cn1nc(C(=O)NCc2ccc(C#N)cc2)c2c1C(=O)N(CC1(S(=O)(=O)C(C)(C)CNC(=O)CN)CC1)CC2 [Example 74]', 'log10 IC50', 0.48),
  ('Cn1nc(C(=O)NCc2ccc(C#N)cc2)c2c1C(=O)N(CC1(S(=O)(=O)C(C)(C)COCCN)CC1)CC2 [Example 92]', 'log10 IC50', 0.00),
  ('Cn1nc(C(=O)NCc2ccc(Cl)cc2)c2c1C(=O)N(CC1(S(C)(=O)=O)CC1)CC2 [Example 22]', 'log10 IC50', 1.08),
  ('Cn1nc(C(=O)NCc2ccc(C#N)cc2)c2c1C(=O)N(CC1(S(=O)(=O)C(C)(C)COC(F)CN)CC1)CC2 (single isomer, unassigned) [Example 82]', 'log10 IC50', 0.30),
  ('CS(=O)(=O)C1(CN2CCc3c(C(=O)NCc4ccc(Cl)cc4)nn(CCO)c3C2=O)CC1 [Example 219]', 'log10 IC50', 1.48),
  ('Cn1nc(C2=NO[C@H](c3ccc(C#N)cc3)C2)c2c1C(=O)N(CC1(S(=O)(=O)C(C)(C)CO)CC1)CC2 [Example 108]', 'log10 IC50', 0.00);

log10 IC50 in this record for C[C@@H](N)C(=O)NCC(C)(C)S(=O)(=O)C1(CN2CCc3c(C(=O)NCc4ccc(C#N)cc4)nn(C)c3C2=O)CC1 [Example 75] : 0.85

The recorded log10 IC50 for entry C[C@H](N)C(=O)NCC(C)(C)S(=O)(=O)C1(CN2CCc3c(C(=O)NCc4ccc(C#N)cc4)nn(C)c3C2=O)CC1 [Example 76] equals 1.00

----------
# Tested system: HSV-polymerase (Human herpesvirus 1 (strain 17) (HHV-1) (Human herpes simplex virus 1))
# Procedure summary: biochemical
Readout type: pIC50
The scale used: pIC50 is minus the common logarithm of the concentration in molar units.

For orientation, consider the following solved cases.
INSERT INTO measurements (compound, readout_type, measured_number) VALUES
  ('CC(O)COCC(C)(C)S(=O)(=O)C1(CN2CCc3c(C(=O)NCc4ccc(C#N)cc4)nn(C)c3C2=O)CC1 (single isomer, unassigned) [Example 90]', 'pIC50', 7.01),
  ('Cn1nc(C(=O)NCc2ccc(C#N)cc2)c2c1C(=O)N(CC1(S(=O)(=O)C(C)(C)COC(F)CO)CC1)CC2 (single isomer, unassigned) [Example 80]', 'pIC50', 7.17);

HSV-polymerase (Human herpesvirus 1 (strain 17) (HHV-1) (Human herpes simplex virus 1)) data for Cn1nc(C(=O)NCc2ccc(C#N)cc2)c2c1C(=O)N(CC1(S(=O)(=O)C(C)(C)C(O)C(C)(C)N)CC1)CC2 (single isomer, unassigned) [Example 211] ; its pIC50: 7.11

The compound CC1=NOC(C(C)(C)S(=O)(=O)C2(CN3CCc4c(C(=O)NCc5ccc(C#N)cc5)nn(C)c4C3=O)CC2)C1 (single isomer, unassigned) [Example 112] , when measured on HSV-polymerase (Human herpesvirus 1 (strain 17) (HHV-1) (Human herpes simplex virus 1)), yielded pIC50 of 7.05

----------
# Tested system: CMV-polymerase (Human cytomegalovirus (strain AD169) (HHV-5) (Human herpesvirus 5), UniProt P08546)
# Procedure summary: biochemical
# Run parameters: read-out: CMV-polymerase Biochemical IC50
pIC50: −log10 of the molar value.
Assign yes to entries whose pIC50 meets or exceeds 8; assign no to the rest.

Q: Is pIC50 at least 8? Consider Cn1nc(C(=O)NCc2ccc(C#N)cc2)c2c1C(=O)N(CC1(S(=O)(=O)C3(CCO)CC3)CC1)CC2
Ans: yes

Q: I'd appreciate it if you could say whether CC1(S(=O)(=O)C2(CN3CCc4c(C(=O)NCc5ccc(C#N)cc5)nn(CCO)c4C3=O)CC2)CC1 has pIC50 at least equal to 8.
Ans: yes

Q: Confirm if pIC50 reported for the compound Cn1nc(C(=O)NCc2ccc(C#N)cc2)c2c1C(=O)N(CC1(S(=O)(=O)CC(C)(C)O)CC1)CC2 is 8 or above.
Ans: no

Q: Has Cn1nc(C(=O)NCc2ccc(C#N)cc2)c2c1C(=O)N(CC1(S(=O)(=O)C(C)(C)[C@@H](O)CO)CC1)CC2 a recorded pIC50 greater than or equal to 8?
Ans: yes

Q: Does the reported pIC50 for CCS(=O)(=O)C1(CN2CCc3c(C(=O)NCc4ccc(C#N)cc4)nn(CC(C)(C)O)c3C2=O)CC1 fall at or above the 8 mark?
Ans: yes
